Numbers sourced from PubChem BioAssay AID686978.

# protocol: qHTS for Inhibitors of human tyrosyl-DNA phosphodiesterase 1 (TDP1): qHTS in cells in absence of CPT; note: nearly all actives have a fitted effect of over 55% in size
# experimental-setup: DT40 Tdp1-/- hTDP1 cells, no CPT, ATP luminescence, 48 h
Screen size: about 420,000 compounds; about 64,000 (15%) were called active. Another 27% or so got no clear call; they are omitted. Calls come from the whole dose curve; as a rule, active = well fitted inhibition curve with a large enough effect; inconclusive = small, poorly fitted or top-dose-only effect; inactive = flat fitted curve, though single readings scatter. Not all results are given here.
Write down the outcome that applies. Available outcomes: label 1 = active, label 0 = inactive

Record excerpt, results attached:
# compound, label
measured = [
    ("O=C(COC(=O)/C=C/c1ccc2c(c1)OCO2)NC1CCS(=O)(=O)C1 (stereo unspecified)", "label 0"),
    ("Cc1cc(C)n2nc(C(=O)Oc3ccc4c(c3)OCO4)nc2n1", "label 0"),
    ("CCCCn1c(SCC(=O)N2CCCC2=O)nc2cc(S(N)(=O)=O)ccc21", "label 0"),
]

input: // outcome(item) with item = NNC(=O)CSc1nnc(-c2ccccc2)n1-c1ccccc1
output: label 0

input: // outcome(item) with item = Cc1ccc(-c2nnc(SCC(=O)N/N=C/c3cccs3)n2-c2ccc(C)cc2)cc1
output: label 1

input: // outcome(item) with item = CN1CCN(/N=C/c2ccc(C#N)cc2)CC1
output: label 0
